Tested on: kochia
ASSAY NAME: Test C preemergence
Format: in vivo, Bassia scoparia
CONDITION SET: Preemergence, 1000 g ai/ha; visual rating after 10 days, 0 to 100 scale (0 no effect, 100 complete control)
MEASURE NAME: Plant response rating, Kochia

Cc1csc(-c2cccc(C(=O)N3C[C@H](C)Oc4c(C)cccc43)c2)c1 [Compound 245]	0
Cc1cc(-c2cccc(C(=O)N3C[C@H](C)Oc4c(Cl)cccc43)c2)sn1 [Compound 389]	90
O=C(c1cccc(-n2cncn2)c1)N1CC2(CC2)Oc2ccccc21 [Compound 201]	0
Cc1cc(-c2cccc(C(=O)N3C[C@H](C)Oc4c(C)cccc43)c2)cs1 [Compound 246]	0
C[C@H]1CN(C(=O)c2cccc(-c3cncc(Cl)c3)c2)c2cccc(Cl)c2O1 [Compound 384]	0
CC1(C)CN(C(=O)c2ccnc(-n3cncn3)c2)c2ccccc2O1 [Compound 202]	0
Cc1ccn(-c2cccc(C(=O)N3C[C@H](C)Oc4c(Cl)cccc43)c2)n1 [Compound 206]	10
Cc1cnc(-c2cccc(C(=O)N3C[C@H](C)Oc4c(C)cccc43)c2)s1 [Compound 243]	0
CC1CN(C(=O)c2ccnc(-c3ccccn3)c2)c2cccc(Cl)c2O1 (stereo not drawn) [Compound 198]	0
